Hello, the source for this data is ChEMBL document CHEMBL4513216, in case you need it.

Experiment: Toxicity liver stage against HepG2, at 10uM
Type: cell-based
Design: test concentration 10 uM, cell line HepG2-A16-CD81EGFP
Details: human, HepG2-A16-CD81EGFP cells; read-out: INHIBITION
assay.metric: cytotoxicity at 10 µM (%)
Kindly answer with a numeric value in %, unit omitted.

Examples with their reported cytotoxicity at 10 µM follow.
[[record]]
compound = "Cc1ccccc1C1(C(=O)NCCN2CCCCC2C)CCOCC1 (stereo not drawn)"
readout_units = "%"
observed_measurement = -1.69

[[record]]
compound = "COc1ccc2cc(C(=O)NCCc3nc(C)no3)[nH]c2c1"
readout_units = "%"
observed_measurement = 9.63

[[record]]
compound = "CNC(=O)NC(=O)CCN1CCCC1c1nc(C2CCCCC2)co1 (stereo not drawn)"
readout_units = "%"
observed_measurement = 5.44

[[record]]
compound = "COCC(=O)N1CCC(=O)N(C2CCCC2)Cc2cc(F)ccc21"
readout_units = "%"
observed_measurement = -3.3

[[record]]
compound = "CCn1ccnc1CN1CCCN(C(=O)c2ccsc2)CC1"
readout_units = "%"
observed_measurement = -6.63

[[record]]
compound = "Cc1cc(C)nc(NC2CCc3nc(C)nn3C2)n1 (stereo not drawn)"
readout_units = "%"
observed_measurement = 14.3


Input: Name the recorded cytotoxicity at 10 µM for `Cc1cc2nc(CN(C)c3ccc(Cl)cc3)cc(=O)n2o1` .
Output: -13

Input: Next record, please: N#Cc1ccnc(N2CCN(C3CCOC3=O)CC2)c1 (stereo not drawn)
Output: -1.98

Input: Next record, please: Cc1cc(NC(=O)CCN2CCCCC2Cn2cncn2)no1 (stereo not drawn)
Output: 4.23

Input: Next record, please: CCn1cc(CN2CCCC3(CCC(=O)N(CCC(C)C)C3)C2)cn1 (stereo not drawn)
Output: -4.73

Input: Next record, please: CC(c1cccc(Cl)c1)N1CCN(S(C)(=O)=O)CC1 (stereo not drawn)
Output: 1.81

Input: Next record, please: NC(=O)C1CCCN1C(=O)c1cc(C2CC2)nc2ccc(F)cc12 (stereo not drawn)
Output: 1.75

Input: Next record, please: CCn1nc(C)c(CNC(=O)NCC(C)(O)c2ccc(C)o2)c1C (stereo not drawn)
Output: 10.5

Input: Next record, please: CC(=O)N1CCN(C(=O)C(C)Nc2ccc3ncsc3c2)CC1 (stereo not drawn)
Output: -3.25

----------
Assay: Toxicity liver stage against HepG2, at 10uM
Assay type: cell-based
Set-up: test concentration 10 uM, cell line HepG2-A16-CD81EGFP
Details: human, HepG2-A16-CD81EGFP cells; read-out: INHIBITION
List of cytotoxicity at 10 µM values.
Kindly answer with a numeric value in %, unit omitted.

[[record]]
compound = "NC(=O)c1ccc(CN2CCCC(O)C2)cc1 (stereo not given)"
assay_metric = "cytotoxicity at 10 µM"
readout_units = "%"
observed_measurement = 0.459

[[record]]
compound = "CCN(C(C)=O)C(c1ccc(Cl)cc1)c1ccccn1 (stereo not given)"
assay_metric = "cytotoxicity at 10 µM"
readout_units = "%"
observed_measurement = -4.29


Input: Name the recorded cytotoxicity at 10 µM for `O=C(OCc1cccs1)c1cccc(C(=O)N2CCCC2)n1` .
Output: -1.11

Input: Next record, please: `Cc1cc(C)c(C#N)c(N2CCC(Cc3ccccc3)CC2)n1`
Output: -11.8

Input: Next record, please: `O=S(=O)(NC[C@]12COC[C@H]1CN(c1ncc(F)cn1)C2)C1CC1`
Output: -128

----------
Test: Toxicity liver stage against HepG2, at 10uM
Format: cell-based
Design: test concentration 10 uM, cell line HepG2-A16-CD81EGFP
Conditions: human, HepG2-A16-CD81EGFP cells; read-out: INHIBITION
assay.metric: cytotoxicity at 10 µM (%)
Kindly answer with a numeric value in %, unit omitted.

Examples with their reported cytotoxicity at 10 µM follow.
[[record]]
compound = "CC1(C(=O)NCc2cccnc2Oc2ccc(F)cc2F)CCCNC1 (stereo not drawn)"
observed_measurement = -5.68

[[record]]
compound = "Cc1noc(C)c1S(=O)(=O)N1C[C@@H](C(=O)O)[C@H](c2ccccn2)C1"
observed_measurement = -6.71

[[record]]
compound = "NC(=O)c1cc(C2CCCN(C(=O)CCc3ccsc3)C2)n[nH]1 (stereo not drawn)"
observed_measurement = -5.79

[[record]]
compound = "c1ccc(CN2C[C@@H]3COC[C@]3(COCc3ccncc3)C2)nc1"
observed_measurement = -76.1


Input: Name the recorded cytotoxicity at 10 µM for `O=C(O)c1ccc(CCNC(=O)C2(O)Cc3ccccc3C2)cc1` .
Output: 3.69

Input: Next record, please: CCc1nc(C2CCCN(C(=O)c3ccc(OC)cc3)C2)no1 (stereo not drawn)
Output: -15.6

Input: Next record, please: `CCOc1ncccc1NC(=O)NC1CCN(C(C)=O)CC1`
Output: -6.47

Input: Next record, please: CSCC(C)(O)CNC(=O)c1cc(F)ccc1Br (stereo not drawn)
Output: -5.41

Input: Next record, please: `CN(C)CCO[C@H]1C[C@@H](O)C12CCN(c1ncccc1Cl)CC2`
Output: 5.37

Input: Next record, please: COc1ccccc1OC1CN(C(=O)C2CNCC(=O)N2)C1 (stereo not drawn)
Output: 5.46

Input: Next record, please: `CC(C)(C)c1cnc(CN2CCC(NC(=O)Nc3ccccc3)CC2)o1`
Output: -12.3

----------
Assay: Toxicity liver stage against HepG2, at 10uM
Assay type: cell-based
Parameters: test concentration 10 uM, cell line HepG2-A16-CD81EGFP
Settings: human, HepG2-A16-CD81EGFP cells; read-out: INHIBITION
List of cytotoxicity at 10 µM values.

Examples with their reported cytotoxicity at 10 µM follow.
[[record]]
compound = "CC(C)Nc1nc2c(s1)C(=O)CN(C(=O)NCc1ccccc1)C2"
observed_measurement = "75.6%"

[[record]]
compound = "Cc1cc(C(=O)N2C[C@H](CO)C[C@H](CN3CCOCC3)C2)cnc1C"
observed_measurement = "3.98%"

[[record]]
compound = "CCOc1ccc(CNC2CCCN(c3cccnn3)C2)cc1OC (centres undefined)"
observed_measurement = "-3.92%"


Input: Name the recorded cytotoxicity at 10 µM for `NCCc1cn(Cc2ccccn2)c2ccccc12` .
Output: 3.71%

Input: Next record, please: `O=C(Cc1cnc(-c2c(Cl)cccc2Cl)s1)N1CCC2(CC1)OCCO2`
Output: -0.367%

Input: Next record, please: `CCOC(=O)CNC(=O)NCc1cccn1Cc1ccccc1`
Output: 9.71%

Input: Next record, please: `CCCc1ccc(CN2CCN(c3ncccn3)[C@@H]3CS(=O)(=O)C[C@@H]32)o1`
Output: 1.66%

Input: Next record, please: COc1cccn(CC(=O)N2CCCC3(CCCO3)CC2)c1=O (centres undefined)
Output: 0.955%

----------
Assay: Toxicity liver stage against HepG2, at 10uM
Format: cell-based
Set-up: test concentration 10 uM, cell line HepG2-A16-CD81EGFP
Conditions: human, HepG2-A16-CD81EGFP cells; read-out: INHIBITION
List of cytotoxicity at 10 µM values.
Kindly answer with a numeric value in %, unit omitted.

Examples with their reported cytotoxicity at 10 µM follow.
[[record]]
compound = "CC(O)CN1CCC(CNCc2cccc(Br)c2)CC1 (stereo not drawn)"
assay_metric = "cytotoxicity at 10 µM"
observed_measurement = -12.1

[[record]]
compound = "CN1CC2(CCN(C(=O)c3cc(-n4cccn4)ccc3Cl)CC2)OC1=O"
assay_metric = "cytotoxicity at 10 µM"
observed_measurement = 2.3


Consider the additional compound presented here.
Input: Name the recorded cytotoxicity at 10 µM for `CCN(Cc1ccc2c(c1)OCCO2)C(=O)Cn1cccnc1=O` .
Output: -5.1

----------
Test: Toxicity liver stage against HepG2, at 10uM
Format: cell-based
Design: test concentration 10 uM, cell line HepG2-A16-CD81EGFP
Settings: human, HepG2-A16-CD81EGFP cells; read-out: INHIBITION
assay.metric: cytotoxicity at 10 µM (%)
Kindly answer with a numeric value in %, unit omitted.

[[record]]
molecule = "OCc1cc2ccccc2nc1N1CCCCC1"
assay_metric = "cytotoxicity at 10 µM"
observed_measurement = 14.1


Input: Name the recorded cytotoxicity at 10 µM for CCCC(O)CN1CC(C)(C)CN(C(=O)c2ccc(SC)cc2)CC1=O (configuration not stated) .
Output: -4

Input: Next record, please: `NC(=O)Cn1cc(NC(=O)N2CCC(c3ccccc3)CC2)cn1`
Output: -7.69

Input: Next record, please: NC(=O)c1csc(N2CCN(C3CCc4ccccc4C3)CC2)n1 (configuration not stated)
Output: 1.67

Input: Next record, please: Cc1cccnc1CCNC(=O)CC1C(=O)NCCN1CCC(C)C (configuration not stated)
Output: 9.01

Input: Next record, please: `CC(=Cc1ccccc1)CNCc1cccc(C(N)=O)c1`
Output: 6.03

Input: Next record, please: `COc1ccc(C(=O)NS(=O)(=O)c2cncc(Br)c2)cc1OC`
Output: 4.36

Input: Next record, please: `Cn1cccc1C(=O)N1CCO[C@H]2[C@H](OCc3cccnc3)CC[C@@H]21`
Output: 7.2

Input: Next record, please: `Cn1cc(CN2CC[C@@H]3[C@@H]2CCN3Cc2ccc3c(c2)OCO3)cn1`
Output: -3.63

Input: Next record, please: `CCSc1ccccc1C(=O)NCCn1nc(C(F)(F)F)n(C)c1=O`
Output: 6.83

Input: Next record, please: CC(c1ccncc1)N(CCN(C)C)C(=O)Nc1ccc(Cl)cc1 (configuration not stated)
Output: 8.88
